tested on: FGFR1 IIIc (Homo sapiens)
Construct: host or cells: Cos-1
Sequence (P11362 22-822): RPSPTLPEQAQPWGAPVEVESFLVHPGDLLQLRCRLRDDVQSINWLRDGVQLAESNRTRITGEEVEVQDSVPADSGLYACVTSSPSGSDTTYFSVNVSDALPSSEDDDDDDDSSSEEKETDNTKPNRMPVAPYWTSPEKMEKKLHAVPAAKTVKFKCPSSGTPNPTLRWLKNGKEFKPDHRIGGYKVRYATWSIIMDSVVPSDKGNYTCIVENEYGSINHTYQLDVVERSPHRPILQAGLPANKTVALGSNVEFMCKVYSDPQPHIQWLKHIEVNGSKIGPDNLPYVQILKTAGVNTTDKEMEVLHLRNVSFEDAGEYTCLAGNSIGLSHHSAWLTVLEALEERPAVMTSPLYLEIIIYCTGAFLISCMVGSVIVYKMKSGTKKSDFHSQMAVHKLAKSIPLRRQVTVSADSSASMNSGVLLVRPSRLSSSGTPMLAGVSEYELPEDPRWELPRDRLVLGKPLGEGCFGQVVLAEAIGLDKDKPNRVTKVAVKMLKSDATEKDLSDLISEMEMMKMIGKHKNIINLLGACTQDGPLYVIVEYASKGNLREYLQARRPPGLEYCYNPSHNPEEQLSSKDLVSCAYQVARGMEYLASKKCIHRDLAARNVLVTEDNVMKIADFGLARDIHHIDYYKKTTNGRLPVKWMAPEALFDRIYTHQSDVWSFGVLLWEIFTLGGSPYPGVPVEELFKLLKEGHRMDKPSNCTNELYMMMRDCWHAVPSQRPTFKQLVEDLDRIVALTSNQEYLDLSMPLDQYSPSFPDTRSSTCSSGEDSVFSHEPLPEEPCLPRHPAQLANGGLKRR
experiment description: Cell based inhibition of transiently expressed FGFR1 IIIc phosphorylation (Cos-1 cells)
setup conditions: Cos-1 cells, phospho-FGFR1; upper bound of bin; read-out: IC50
Counter-ions that a name gives are not always drawn.
Here the recorded IC50 is given for each entry.
reported property: IC50

Cc1cc(CNc2nccc(Nc3cc(C4CCCC4)[nH]n3)n2)on1 [Example 13]; < 0.2 µM
CNC(=O)c1cc(CNc2nccc(Nc3cc(CCc4cccc(O)c4)n[nH]3)n2)on1 [Example 65]; < 10 µM
Cc1cc(CNc2nccc(Nc3cc(CCC4CCOC4)[nH]n3)n2)on1 (centres unmarked) [Example 109]; < 10 µM
Cc1cc(CNc2nccc(Nc3cc(CCc4cn(C)cn4)[nH]n3)n2)on1 [Example 119]; < 30 µM
COC(=O)c1cccc(COc2cc(Nc3ccnc(NCc4cc(C)no4)n3)n[nH]2)c1 [Example 97, hydrochloride]; < 0.2 µM
